# inhibition at 10 µM per entry
# ASSAYED TARGET: 5-lipoxygenase (Cavia porcellus, UniProt A0A286X958)
# Construct: The 5-LO was concentrated in a known manner from PMNs of male Dunkin-Hartley guinea-pigs; endogenous in cells; host or cells: peritoneal PMNs of male Dunkin-Hartley guinea-pigs, homogenized; 10,000 x g supernatant used as enzyme solution
# Sequence (A0A286X958 1-674): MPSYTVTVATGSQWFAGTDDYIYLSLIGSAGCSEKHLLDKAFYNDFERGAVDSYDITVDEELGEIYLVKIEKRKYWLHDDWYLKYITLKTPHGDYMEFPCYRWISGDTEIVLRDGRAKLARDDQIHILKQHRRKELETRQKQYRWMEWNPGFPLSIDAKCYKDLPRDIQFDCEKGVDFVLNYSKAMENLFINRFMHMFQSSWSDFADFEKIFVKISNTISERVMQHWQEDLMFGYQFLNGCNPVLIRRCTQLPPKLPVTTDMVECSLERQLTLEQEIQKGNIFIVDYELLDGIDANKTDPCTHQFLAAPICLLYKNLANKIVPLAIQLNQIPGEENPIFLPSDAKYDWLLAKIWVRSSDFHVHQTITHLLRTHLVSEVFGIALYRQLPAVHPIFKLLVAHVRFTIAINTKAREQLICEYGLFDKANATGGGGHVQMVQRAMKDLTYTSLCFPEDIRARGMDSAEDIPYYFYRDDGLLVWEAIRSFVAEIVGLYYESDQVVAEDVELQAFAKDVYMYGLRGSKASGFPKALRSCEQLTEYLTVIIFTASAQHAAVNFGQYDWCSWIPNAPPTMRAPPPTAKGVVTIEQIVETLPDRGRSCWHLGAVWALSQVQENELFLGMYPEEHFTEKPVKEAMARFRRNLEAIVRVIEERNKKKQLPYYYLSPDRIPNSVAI
# PROCEDURE TEXT: inhibitory activity on free 5-lipoxygenase concentrated from peritoneal PMNs of the guinea-pig (5-HETE formation)
# Format: biochemical
# ASSAY CONTEXT: 10^-5 mole/liter; guinea-pig 5-LO, 37° C.; read-out: In vitro % inhibitory activity on 5-HETE formation caused by free 5-LO
Could you write the number and then its unit?

Example entries and their recorded answers appear below.
INSERT INTO assay_data (compound, meas_value) VALUES
  ('Cc1ccnc(N2CCN(CCC3Cn4c(-c5cc(C)c(O)c(C)c5)c(C)c5cccc(c54)O3)CC2)c1 (stereo not shown) [Example 20]', '100%'),
  ('Cc1ccc(N2CCN(CCC3Cn4c(-c5cc(C)c(O)c(C)c5)c(C)c5cccc(c54)O3)CC2)nc1 (stereo not shown) [Example 62]', '77%');

// switching to the query compound
Task: Specify reported inhibition at 10 µM for the compound shown: Cc1ccnc(N2CCN(C(=O)CCC3Cn4c(-c5ccc(O)cc5)c(C)c5c(O)ccc(c54)O3)CC2)c1 (stereo not shown) [Example 69]
Output: 100%

====

# ASSAYED TARGET: 5-lipoxygenase (Cavia porcellus, UniProt A0A286X958)
# Construct: The 5-LO was concentrated in a known manner from PMNs of male Dunkin-Hartley guinea-pigs; endogenous in cells; host or cells: peritoneal PMNs of male Dunkin-Hartley guinea-pigs, homogenized; 10,000 x g supernatant used as enzyme solution
# PROCEDURE TEXT: inhibitory activity on free 5-lipoxygenase concentrated from peritoneal PMNs of the guinea-pig (5-HETE formation)
# Assay type: biochemical
# ASSAY CONTEXT: 10^-5 mole/liter; guinea-pig 5-LO, 37° C.; read-out: In vitro % inhibitory activity on 5-HETE formation caused by free 5-LO
MEASURE: inhibition at 10 µM (%)
Reply with just the number (in %).

Example entries and their recorded answers appear below.
INSERT INTO assay_data (molecule, assayed_target, meas_value) VALUES
  ('Cc1ccnc(N2CCN(C(=O)CCC3Cn4c(-c5cc(C)c(O)c(C)c5)c(C)c5cccc(c54)O3)CC2)c1 (centres unmarked) [Example 25]', '5-lipoxygenase (Cavia porcellus, UniProt A0A286X958)', 92),
  ('Cc1ccnc(N2CCN(CCCC3Cn4c(-c5cc(C)c(O)c(C)c5)c(C)c5cccc(c54)O3)CC2)c1 (centres unmarked) [Example 11]', '5-lipoxygenase (Cavia porcellus, UniProt A0A286X958)', 95);

Task: Specify reported inhibition at 10 µM for the molecule shown: Cc1ccnc(N2CCN(CCC3Cn4c(-c5ccc(O)cc5)c(C)c5cccc(c54)S3)CC2)c1 (centres unmarked) [Example 21]
Output: 30

Task: Specify reported inhibition at 10 µM for the molecule shown: Cc1ccnc(N2CCN(CCC3Cn4c(-c5cc(C)c(O)c(C)c5)c(C)c5c(F)ccc(c54)O3)CC2)c1 (centres unmarked) [Example 28]
Output: 44

Task: Specify reported inhibition at 10 µM for the molecule shown: Cc1ccnc(N2CCN(CCC3Cn4c(-c5ccc(O)cc5)c(C)c5c(F)ccc(c54)O3)CC2)c1 (centres unmarked) [Example 22]
Output: 97
